Numbers sourced from ChEMBL document CHEMBL5104131.

Entries and their measured MIC follow.
Tested on: Klebsiella pneumoniae
ASSAY: Antibacterial activity against Klebsiella pneumoniae assessed as bacterial growth inhibition by serial dilution method
Format: functional
# value in µg/mL; strip the unit string

Give the reported MIC for CCn1cc(C(=O)O)c(=O)c2cc(F)c(N3CCN(c4nccc(N)n4)CC3)cc21 (system: Klebsiella pneumoniae).
0.5

Give the reported MIC for O=C(O)c1cn(C2CC2)c2cc(N3CCNCC3)c(F)cc2c1=O (system: Klebsiella pneumoniae).
2

Give the reported MIC for CCn1cc(C(=O)O)c(=O)c2cc(F)c(N3CCN(c4nccc(C)n4)CC3)cc21 (system: Klebsiella pneumoniae).
4

---

Entries and their measured MIC follow.
Test system: Escherichia coli
ASSAY: Antibacterial activity against Escherichia coli assessed as bacterial growth inhibition by serial dilution method
Format: functional

// below: answered molecules
SMILES_STR	MIC
Cc1cnc(N2CCN(c3cc4c(cc3F)c(=O)c(C(=O)O)cn4C3CC3)CC2)nc1	64 µg/mL
CCn1cc(C(=O)O)c(=O)c2cc(F)c(N3CCN(c4ncc(F)cn4)CC3)cc21	16 µg/mL
O=C(O)c1cn(C2CC2)c2cc(N3CCN(c4ncc(Br)cn4)CC3)c(F)cc2c1=O	64 µg/mL
CCc1cnc(N2CCN(c3cc4c(cc3F)c(=O)c(C(=O)O)cn4C3CC3)CC2)nc1	8 µg/mL
CCn1cc(C(=O)O)c(=O)c2cc(F)c(N3CCN(c4nccc(C(F)(F)F)n4)CC3)cc21	> 256 µg/mL

Reported MIC, molecule CCc1cnc(N2CCN(c3cc4c(cc3F)c(=O)c(C(=O)O)cn4CC)CC2)nc1 : ____
16 µg/mL

Reported MIC, molecule COc1cnc(N2CCN(c3cc4c(cc3F)c(=O)c(C(=O)O)cn4C3CC3)CC2)nc1 : ____
64 µg/mL

Reported MIC, molecule CCn1cc(C(=O)O)c(=O)c2cc(F)c(N3CCN(c4nccc(C)n4)CC3)cc21 : ____
64 µg/mL

Reported MIC, molecule CCn1cc(C(=O)O)c(=O)c2cc(F)c(N3CCN(c4ncc(OC)cn4)CC3)cc21 : ____
64 µg/mL

---

ASSAY: Cytotoxicity against human HaCaT cells assessed as cell viability at 50 ug/ml by CCK-8 assay relative to control
Assay type: toxicity, cell-based
MEASUREMENT_CONDITIONS: at 50 µg/mL, read-out: Activity
OBSERVABLE: viability at 50 ug/ml (%)
# value in %; strip the unit string

SMILES_STR	OBSERVABLE	UNIT_DESCRIPTOR	MEASURED_NUMBER
CCn1cc(C(=O)O)c(=O)c2cc(F)c(N3CCN(c4nccc(N)n4)CC3)cc21	viability at 50 ug/ml	%	70

Would you kindly look at the next entry?
Reported viability at 50 ug/ml, compound O=C(O)c1cn(C2CC2)c2cc(N3CCN(c4ncccn4)CC3)c(F)cc2c1=O : ____
70

---

Entries and their measured MIC follow.
System: Staphylococcus aureus
ASSAY: Antibacterial activity against Staphylococcus aureus ATCC 25923 assessed as bacterial growth inhibition by serial dilution method
Format: functional
# value in µg/mL; strip the unit string

SMILES_STR	OBSERVABLE	MEASURED_NUMBER
CCn1cc(C(=O)O)c(=O)c2cc(F)c(N3CCN(c4nccc(C)n4)CC3)cc21	MIC	4
CCn1cc(C(=O)O)c(=O)c2cc(F)c(N3CCNCC3)cc21	MIC	2
CCc1cnc(N2CCN(c3cc4c(cc3F)c(=O)c(C(=O)O)cn4CC)CC2)nc1	MIC	2
Cc1cnc(N2CCN(c3cc4c(cc3F)c(=O)c(C(=O)O)cn4C3CC3)CC2)nc1	MIC	2

Reported MIC, compound CCn1cc(C(=O)O)c(=O)c2cc(F)c(N3CCN(c4ncc(F)cn4)CC3)cc21 : ____
16

---

Test system: Escherichia coli
ASSAY: Antibacterial activity against Escherichia coli assessed as bacterial growth inhibition by serial dilution method
Assay type: functional
Define the label as t when MIC is strictly less than 60 µg/mL and as f in all remaining cases.

SMILES_STR	CLASS_LABEL
O=C(O)c1cn(C2CC2)c2cc(N3CCN(c4ncccn4)CC3)c(F)cc2c1=O	t
CCn1cc(C(=O)O)c(=O)c2cc(F)c(N3CCN(c4ncc(C)cn4)CC3)cc21	t

is_below(MIC, 60 µg/mL) for CCn1cc(C(=O)O)c(=O)c2cc(F)c(N3CCNCC3)cc21 ?
t

is_below(MIC, 60 µg/mL) for O=C(O)c1cn(C2CC2)c2cc(N3CCN(c4ncc(F)cn4)CC3)c(F)cc2c1=O ?
f

is_below(MIC, 60 µg/mL) for CCn1cc(C(=O)O)c(=O)c2cc(F)c(N3CCN(c4ncccn4)CC3)cc21 ?
t

is_below(MIC, 60 µg/mL) for CCn1cc(C(=O)O)c(=O)c2cc(F)c(N3CCN(c4nccc(N)n4)CC3)cc21 ?
t

is_below(MIC, 60 µg/mL) for Cc1ccnc(N2CCN(c3cc4c(cc3F)c(=O)c(C(=O)O)cn4C3CC3)CC2)n1 ?
f

is_below(MIC, 60 µg/mL) for CCn1cc(C(=O)O)c(=O)c2cc(F)c(N3CCN(c4ncc(Br)cn4)CC3)cc21 ?
f

is_below(MIC, 60 µg/mL) for O=C(O)c1cn(C2CC2)c2cc(N3CCN(c4nccc(C(F)(F)F)n4)CC3)c(F)cc2c1=O ?
f

---

Tested on: Staphylococcus aureus
ASSAY: Antibacterial activity against Staphylococcus aureus assessed as bacterial growth inhibition by serial dilution method
Assay type: functional
OBSERVABLE: log10 MIC (log10 of the value in µg/mL)
The figures below represent log10 of MIC, where MIC is stated in µg/mL.

MOLECULE	EXPERIMENTAL_TARGET	MEASURED_NUMBER
O=C(O)c1cn(C2CC2)c2cc(N3CCN(c4ncc(Br)cn4)CC3)c(F)cc2c1=O	Staphylococcus aureus	1.20
COc1cnc(N2CCN(c3cc4c(cc3F)c(=O)c(C(=O)O)cn4C3CC3)CC2)nc1	Staphylococcus aureus	2.41
CCn1cc(C(=O)O)c(=O)c2cc(F)c(N3CCN(c4nccc(N)n4)CC3)cc21	Staphylococcus aureus	0.00

Give the reported log10 MIC for CCn1cc(C(=O)O)c(=O)c2cc(F)c(N3CCN(c4ncc(F)cn4)CC3)cc21 (system: Staphylococcus aureus).
0.60

Give the reported log10 MIC for O=C(O)c1cn(C2CC2)c2cc(N3CCNCC3)c(F)cc2c1=O [CIPROFLOXACIN] (system: Staphylococcus aureus).
0.30

Give the reported log10 MIC for CCn1cc(C(=O)O)c(=O)c2cc(F)c(N3CCN(c4ncc(Br)cn4)CC3)cc21 (system: Staphylococcus aureus).
0.90

Give the reported log10 MIC for CCn1cc(C(=O)O)c(=O)c2cc(F)c(N3CCN(c4ncccn4)CC3)cc21 (system: Staphylococcus aureus).
1.81

---

Tested on: Klebsiella pneumoniae
ASSAY: Antibacterial activity against Klebsiella pneumoniae assessed as bacterial growth inhibition by serial dilution method
Type: functional
OBSERVABLE: MIC (µg/mL)
# value in µg/mL; strip the unit string

Reported MIC, molecule CCn1cc(C(=O)O)c(=O)c2cc(F)c(N3CCN(c4ncc(F)cn4)CC3)cc21 : ____
128

Reported MIC, molecule CCn1cc(C(=O)O)c(=O)c2cc(F)c(N3CCN(c4nccc(C(F)(F)F)n4)CC3)cc21 : ____
128

Reported MIC, molecule CCn1cc(C(=O)O)c(=O)c2cc(F)c(N3CCNCC3)cc21 [NORFLOXACIN] : ____
4

Reported MIC, molecule O=C(O)c1cn(C2CC2)c2cc(N3CCN(c4nccc(C(F)(F)F)n4)CC3)c(F)cc2c1=O : ____
128

Reported MIC, molecule O=C(O)c1cn(C2CC2)c2cc(N3CCN(c4ncc(F)cn4)CC3)c(F)cc2c1=O : ____
128

---

Entries and their measured MIC follow.
Test system: Staphylococcus aureus
ASSAY: Antibacterial activity against Staphylococcus aureus assessed as bacterial growth inhibition by serial dilution method
Assay type: functional

// below: answered molecules
SMILES_STR	OBSERVABLE	RESULT
CCn1cc(C(=O)O)c(=O)c2cc(F)c(N3CCN(c4nccc(C(F)(F)F)n4)CC3)cc21	MIC	> 256 mg/L
O=C(O)c1cn(C2CC2)c2cc(N3CCN(c4nccc(C(F)(F)F)n4)CC3)c(F)cc2c1=O	MIC	128 mg/L
O=C(O)c1cn(C2CC2)c2cc(N3CCN(c4ncc(F)cn4)CC3)c(F)cc2c1=O	MIC	8 mg/L

Reported MIC, molecule CCn1cc(C(=O)O)c(=O)c2cc(F)c(N3CCN(c4ncc(OC)cn4)CC3)cc21 : ____
2 mg/L

Reported MIC, molecule CCc1cnc(N2CCN(c3cc4c(cc3F)c(=O)c(C(=O)O)cn4C3CC3)CC2)nc1 : ____
1 mg/L

Reported MIC, molecule CCn1cc(C(=O)O)c(=O)c2cc(F)c(N3CCN(c4nccc(C)n4)CC3)cc21 : ____
4 mg/L

Reported MIC, molecule O=C(O)c1cn(C2CC2)c2cc(N3CCN(c4ncccn4)CC3)c(F)cc2c1=O : ____
4 mg/L
